# target_desc: mPD-L1-His (mouse, UniProt Q9EP73 19-290, labelled with RED-NHS676 dye)
# Sequence (Q9EP73 19-290): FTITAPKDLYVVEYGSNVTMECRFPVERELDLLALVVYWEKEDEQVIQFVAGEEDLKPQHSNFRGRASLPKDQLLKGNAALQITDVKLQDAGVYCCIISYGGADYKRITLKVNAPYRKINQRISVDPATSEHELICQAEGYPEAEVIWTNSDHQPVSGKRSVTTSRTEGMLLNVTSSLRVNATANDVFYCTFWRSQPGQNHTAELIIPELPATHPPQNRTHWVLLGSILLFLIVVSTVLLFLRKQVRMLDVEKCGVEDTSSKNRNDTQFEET
# method_description: MST; His-tagged PD-L1 (hPD-L1 200 nM, mPD-L1 800 nM) labelled 1:1 with 100 nM RED-NHS676 dye in PBST for 30 min; peptide diluted from 400 μM to 0.012 μM; standard capillaries, Monolith NT.115
# condition_info: both partners purified
No end group written: not given here.
endpoint: Kd (nM)
API: value field is a number in nM; no unit string.

# input I would be grateful if you could share the reported Kd for N(D‑galactose)YSKPTDRQYHF (L-type peptide ^LPPA-1, L-amino-acid analogue of the PD-L1-targeting D-peptide ^DPPA-1; printed in three-letter code; source: synthetic peptide (Fmoc solid-phase synthesis, purified by reverse-phase HPLC)) [D-gal-^LPPA-1] .
# output 14.9
